- Test system: P. falciparum (3D7 strain) merozoite proteins
- test description: Blot overlay assay, merozoite proteins
- Type: binding, Plasmodium falciparum
- stated conditions: biotinylated peptides each 400 μM
observed property: binding to merozoite proteins, blot overlay

substance	observed
GKASTPGAAAQIQEVKEQRI [Peptide 5C, Synthetic human Band 3 peptide, amino acid 742-761]	specifically bind
DRILLLFKPPKYHPDVPYVK [Peptide 6A, Synthetic human Band 3 peptide, amino acid 807-826]	specifically bind
